Origin of values: patent US6635641B2

As shown below, each of these compounds has a reported Ki value.
# system.under.test: LCK tyrosine kinase (Homo sapiens, UniProt P06239, C224D/P223M)
# Construct: starting from amino acid residue 223 to the end of the protein at residue 509
# Sequence (P06239 223-509 P223M/C224D): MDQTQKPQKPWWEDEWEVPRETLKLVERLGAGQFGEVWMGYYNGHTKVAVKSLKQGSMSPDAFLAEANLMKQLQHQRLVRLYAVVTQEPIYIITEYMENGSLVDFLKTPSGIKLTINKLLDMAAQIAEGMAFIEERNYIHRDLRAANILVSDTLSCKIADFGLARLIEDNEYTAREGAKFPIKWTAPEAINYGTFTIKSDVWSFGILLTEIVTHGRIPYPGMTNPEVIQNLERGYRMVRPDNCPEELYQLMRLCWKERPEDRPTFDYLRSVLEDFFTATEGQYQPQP
# assay.explanation: LCK spectrophotometric assay;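 note: recombinant LCK kinase activity on poly(E4Y1), ADP formation coupled through PK/LDH to NADH oxidation, followed as absorbance loss at 340 nm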
# settings: read-out: LCK-P Ki
Record the value in nM, omitting the unit from your answer.

Previously resolved entries follow.
1. CNS(=O)(=O)c1ccc(Nc2cc(CCc3cccc(C(=O)Nc4ccc(C(C)C)c(C)c4)c3)[nH]n2)cc1 [Example G-1]    90
2. COc1ccc(Nc2cc(CCc3cccc(C(=O)Nc4ccc(N(C)C)c(C(F)(F)F)c4)c3)[nH]n2)cn1 [Example G-5]    69
3. COc1ccc(Nc2cc(COc3cc(C(=O)Nc4ccc(N5CCCC5)c(C(F)(F)F)c4)ccc3F)[nH]n2)cn1 [Example J-2]    10.5
4. Cc1cc(NC(=O)c2cccc(CCc3cc(Nc4ccccc4)n[nH]3)c2)ccc1C(C)C [Example G-3]    11.2
5. COc1ccc(Nc2cc(CCc3cccc(C(=O)Nc4ccc(C(C)C)c(C)c4)c3)[nH]n2)cn1 [Example G-4]    72

input: Which Ki is listed for COc1ccc(Nc2cc(CCc3cccc(C(=O)Nc4ccc(N5CCCC5)c(C(F)(F)F)c4)c3)[nH]n2)cn1 [Example G-8] ?
output: 5.8

input: And the next one, Cc1cc(NC(=O)c2ccc(F)c(OCc3cncc4ccccc34)c2)ccc1C(C)C [Example K-10] ?
output: 57.7

input: And the next one, COc1ccc(Nc2cc(CCc3cccc(C(=O)Nc4cnc(N(C)C)c(C(F)(F)F)c4)c3)[nH]n2)cn1 [Example G-6] ?
output: 65

---

As shown below, each of these compounds has a reported pKi value.
# system.under.test: unphosphorylated VEGF-R2Δ50 (FLVK) (Homo sapiens, UniProt P35968, DEL940-989/E990V)
# Construct: VEGF-R2Δ50 contains residues 806-939 and 990-1171; made in house; host or cells: baculovirus/insect cells
# Sequence (P35968 with tags, fused parts or gaps DEL940-989/E990V limits assumed): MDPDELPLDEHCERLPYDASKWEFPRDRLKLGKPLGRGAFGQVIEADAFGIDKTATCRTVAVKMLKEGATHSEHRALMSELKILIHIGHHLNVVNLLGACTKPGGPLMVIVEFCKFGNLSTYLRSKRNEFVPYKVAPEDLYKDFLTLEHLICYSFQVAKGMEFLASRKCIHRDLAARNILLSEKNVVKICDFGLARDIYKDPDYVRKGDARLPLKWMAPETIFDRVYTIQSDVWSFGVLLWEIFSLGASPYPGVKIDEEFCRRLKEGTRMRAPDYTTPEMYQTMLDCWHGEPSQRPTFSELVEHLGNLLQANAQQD
# assay.explanation: VEGF-R2 coupled spectrophotometric assay, unphosphorylated construct (FLVK)
# Assay type: biochemical
# settings: unphosphorylated VEGF-R2 construct
Reminder that pKi is minus the log10 of a molar concentration.

1. CC(C)(C)c1cc(C(=O)Nc2cccc(SCc3cccnc3)c2)ccc1O [Example W-2]    8.82

input: Which pKi is listed for CC(C)(C)c1cc(C(=O)Nc2cccc(OCc3cncc(Br)c3)c2)ccc1O [Example X-1] ?
output: 8.82

input: And the next one, CC(C)(C)c1cc(C(=O)Nc2cccc(OCc3cncc4ccccc34)c2)ccc1O [Example X-5] ?
output: 8.89

input: And the next one, COc1ccc(Nc2cc(CSc3cccc(NC(=O)c4ccc(O)c(C(C)(C)C)c4)c3)[nH]n2)cn1 [Example W-1] ?
output: 9.92

---

# Tested on: human umbilical vein endothelial cells (HUVEC)
# assay.explanation: HUVEC proliferation assay (VEGF-stimulated, MTT)
# Type: cell-based
# settings: Homo sapiens, HUVEC; read-out: HUVEC IC50
recorded.metric: pIC50
Reminder that pIC50 is minus the log10 of a molar concentration.

Previously resolved entries follow.
1) CC(=O)Nc1ccc(COc2cccc(C(=O)Nc3ccc4nc(C)ccc4c3)c2)cn1 [Example N-1]    7.42
2) COc1cc(/C=C/c2cc(CNc3cccc(C(=O)Nc4ccc(C(C)C)c(C)c4)c3)[nH]n2)ccc1O [Example I-1]    6.66
3) COc1ccc(/C=C/c2cc(CCc3cccc(C(=O)Nc4ccc(C(C)C)c(C)c4)c3)[nH]n2)cc1OC [Example F-3]    8.00
4) COc1ccc(Nc2cc(COc3cc(C(=O)Nc4ccc(-n5ccnc5)c(C(F)(F)F)c4)ccc3F)[nH]n2)cn1 [Example J-1]    7.43
5) CN1CCN(c2ccc(NC(=O)c3ccc(F)c(OCc4cccnc4)c3)cc2C(F)(F)F)CC1 [Example R-20]    6.81
6) COc1ccc(Nc2cc(CCc3cccc(C(=O)Nc4cc(Cl)c(N(C)C)c(Cl)c4)c3)[nH]n2)cn1 [Example G-7]    7.77
7) Cc1cc(NC(=O)c2cccc(CCc3cc(Nc4ccccc4)n[nH]3)c2)ccc1C(C)C [Example G-3]    8.01
8) O=C(Nc1ccc(N2CCOCC2)c(C(F)(F)F)c1)c1ccc(F)c(OCc2cccnc2)c1 [Example R-12]    7.82
9) Cc1ccc(C(=O)Nc2ccc(C(C)C)c(C)c2)cc1OCc1cncc2ccccc12 [Example K-11]    7.43
10) Cc1cc(NC(=O)c2cccc(OCc3cncc4ccccc34)c2)ccc1C(C)C [Example K-1]    7.40

Proceed to the following item.
input: Which pIC50 is listed for C/C=C/c1cc(COc2cc(C(=O)Nc3ccc(N4CCCC4)c(C(F)(F)F)c3)ccc2F)[nH]n1 [Example F-4] ?
output: 7.20

---

# system.under.test: phosphorylated VEGF-R2Δ50 (FLVK-P) (Homo sapiens, UniProt P35968, DEL940-989/E990V)
# Construct: VEGF-R2Δ50 contains residues 806-939 and 990-1171; made in house; host or cells: baculovirus/insect cells
# Sequence (P35968 with tags, fused parts or gaps DEL940-989/E990V limits assumed): as above
# assay.explanation: VEGF-R2 coupled spectrophotometric assay, phosphorylated construct (FLVK-P)
# Format: biochemical
Counter-ions that a name gives are not always drawn.
As shown below, each of these compounds has a reported pKi value.
Reminder that pKi is minus the log10 of a molar concentration.

1. COc1ccc(/C=C/c2cc(CCc3cccc(C(=O)Nc4ccc(C(C)C)c(C)c4)c3)[nH]n2)cc1OC    9.00
2. Cc1cc(NC(=O)c2cccc(CCc3cccnc3)c2)ccc1C(C)C    7.91
3. Cc1cc(NC(=O)c2cccc(CSc3nc(N)n[nH]3)c2)ccc1C(C)C    4.89
4. CSc1cc(C)nc2ccc(NC(=O)c3cccc(OCc4cncc5ccccc45)c3)cc12 [Example K-4, hydrochloride]    7.19
5. COc1ccc(Nc2cc(CCc3cccc(C(=O)Nc4ccc(C(C)C)c(C)c4)c3)[nH]n2)cn1    9.10
6. Cc1cc(C)cc(NC(=O)c2cccc(CSc3ncnc4[nH]ncc34)c2)c1    6.68

input: Which pKi is listed for "O=C(Nc1cccc(OC(F)(F)F)c1)c1cccc(OCc2cncc3ccccc23)c1" ?
output: 8.00

input: And the next one, "COc1ccc(Nc2cc(CCc3cccc(C(=O)Nc4cc(Cl)c(N(C)C)c(Cl)c4)c3)[nH]n2)cn1" ?
output: 9.19

input: And the next one, "CC(C)c1cccc(NC(=O)c2cccc(CSc3ncnc4[nH]ncc34)c2)c1" ?
output: 7.80

input: And the next one, "COc1cc(NC(=O)c2cccc(CSc3ncnc4[nH]ncc34)c2)cc(C(F)(F)F)c1" ?
output: 7.82

---

# system.under.test: unphosphorylated VEGF-R2Δ50 (FLVK) (Homo sapiens, UniProt P35968, DEL940-989/E990V)
# Construct: VEGF-R2Δ50 contains residues 806-939 and 990-1171; made in house; host or cells: baculovirus/insect cells
# assay.explanation: VEGF-R2 coupled spectrophotometric assay, unphosphorylated construct (FLVK);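 note: Baculovirus-expressed cytosolic kinase domain, ADP formation linked via pyruvate kinase and lactate dehydrogenase to NADH oxidation, read as falling absorbance at 340 nm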
# Format: biochemical
# settings: unphosphorylated VEGF-R2 construct
pKi: −log10 of the molar value. Structures can show the parent of a compound that is named as a salt.
// label = T if pKi is not less than 8, otherwise F

1. CC(C)(C)c1cc(C(=O)Nc2cccc(CSc3ncnc4[nH]ncc34)c2)cc(C(C)(C)C)c1 [Example V-9]    F
2. CC(C)(C)c1cc(C(=O)Nc2cccc(SCc3cncc4ccccc34)c2)ccc1O.Cl [Example W-3]    T
3. Nc1ccc(CCc2cccc(C(=O)Nc3ccc(N4CCNCC4)c(C(F)(F)F)c3)c2)cn1 [AA-2, dihydrochloride]    F

Attention now turns to another entry.
input: Record O=C(Nc1ccc(N2CCNCC2)c(C(F)(F)F)c1)c1ccc(F)c(CCc2cnc3[nH]cnc3c2)c1 [DD-1, dihydrochloride] ; criterion: pKi no lower than 8. Met?
output: T

---

Counter-ions that a name gives are not always drawn.
As shown below, each of these compounds has a reported melting point value.

Previously resolved entries follow.
1) Cc1ccc2cc(NC(=O)c3cccc(SCc4cc(Nc5ccccc5)n[nH]4)c3)ccc2n1 [Example E-1]    172 to 174 °C
2) O=C(Nc1ccc(N2CCOCC2)c(C(F)(F)F)c1)c1ccc(F)c(OCc2cnc3ccccc3c2)c1 [Example R-16]    81 to 84 °C
3) Cc1cc(NC(=O)c2cccc(OCc3cnc(NNC(=O)OC(C)(C)C)c4ccccc34)c2)ccc1C(C)C [Example P-1]    125 to 129 °C
4) COc1cccc(/C=N/Nc2ncc(COc3cccc(C(=O)Nc4ccc(C(C)C)c(C)c4)c3)c3ccccc23)c1 [Example Q-1]    125 to 131 °C
5) COC(=O)Nc1n[nH]c(SCc2cccc(C(=O)Nc3cc(OC)c(OC)c(OC)c3)c2)n1 [Example C-2]    > 150 °C (dec.)

input: Which melting point is listed for O=C(Nc1cc(Cl)c(N2CCNCC2)c(Cl)c1)c1ccc(F)c(OCc2cccnc2)c1 [Example R-19] ?
output: 81 to 85 °C

input: And the next one, O=C(Nc1cc(Cl)c(N2CCCC2)c(Cl)c1)c1ccc(F)c(OCc2cccnc2)c1 [Example R-11] ?
output: 163 to 167 °C

input: And the next one, O=C(Nc1ccc(N2CCNCC2)c(C(F)(F)F)c1)c1ccc(F)c(OCc2cnc3ccccc3c2)c1 (as salt: hydrochloride) [Example R-17] ?
output: 76 to 78 °C

input: And the next one, CC(=O)Nc1ccc(COc2cccc(C(=O)Nc3ccc(C(C)C)c(C)c3)c2)cn1 [Example N-2] ?
output: 98 to 101 °C

input: And the next one, CC(C)(C)c1cc(C(=O)Nc2cccc(OCc3cccnc3)c2)ccc1O [Example X-4] ?
output: 104 to 107 °C

input: And the next one, Cc1cc(NC(=O)c2cccc(CSc3cnccn3)c2)ccc1C(C)C [Example A-3] ?
output: 69 to 73 °C

input: And the next one, COc1cc(NC(=O)c2cccc(CSc3cnccn3)c2)cc(OC)c1OC [Example A-1] ?
output: 112 to 119 °C

input: And the next one, CN1CCN(c2ccc(NC(=O)c3ccc(F)c(OCc4cccnc4)c3)cc2C(F)(F)F)CC1 [Example R-20] ?
output: 61 to 66 °C
